Ref: ChEMBL document CHEMBL3414568

Test system: WiDr
EXPERIMENT: Cytotoxicity against human WiDr cells overexpressing MGMT after 48 hrs by trypan blue staining-based hemocytometric analysis
Type: functional, cell-based
READOUT KIND: pIC50
# pIC50 = -log10(concentration in molar units)

INSERT INTO assay_data (compound, observed_result) VALUES
  ('Cn1nnc2c(C(N)=O)ncn2c1=O [TEMOZOLOMIDE]', 2.76);

Here's the next entry for you.
Given the compound CN1C(=O)N(CCCl)N=Nc2c(C(F)(F)F)nn(-c3ccccc3)c21 , what is its reported pIC50?
5.64

====

EXPERIMENT: Cytotoxicity against human HL60 cells assessed as growth inhibition after 48 hrs by trypan blue staining-based hemocytometric analysis
Format: functional
ASSAY CONTEXT: HL-60, 48 h
GI50 overview
Respond with the bare value in µM.

Below: 3 compounds and their reported GI50.
INSERT INTO assay_data (compound, readout_kind, observed_result) VALUES
  ('COc1cccc2c1C(=O)c1c(O)c3c(c(O)c1C2=O)C[C@@](O)(C(C)=O)C[C@@H]3O[C@H]1C[C@H](N)[C@H](O)[C@H](C)O1', 'GI50', 0.1),
  ('CN1C(=O)N(CCCl)N=Nc2c(C(F)(F)F)nn(-c3ccccc3)c21', 'GI50', 9),
  ('CN1N=Nc2c(C(F)(F)F)nn(-c3ccccc3)c2N(C)C1=O', 'GI50', 21);

Here's the next entry for you.
Given the compound COc1cc([C@@H]2c3cc4c(cc3[C@@H](O[C@@H]3O[C@@H]5CO[C@@H](C)O[C@H]5[C@H](O)[C@H]3O)[C@H]3COC(=O)[C@H]23)OCO4)cc(OC)c1O [ETOPOSIDE] , what is its reported GI50?
0.4
